Molecular target: BTK (Homo sapiens, UniProt Q06187)
Construct: endogenous in cells; host or cells: Ramos cells
Sequence (Q06187 whole entry): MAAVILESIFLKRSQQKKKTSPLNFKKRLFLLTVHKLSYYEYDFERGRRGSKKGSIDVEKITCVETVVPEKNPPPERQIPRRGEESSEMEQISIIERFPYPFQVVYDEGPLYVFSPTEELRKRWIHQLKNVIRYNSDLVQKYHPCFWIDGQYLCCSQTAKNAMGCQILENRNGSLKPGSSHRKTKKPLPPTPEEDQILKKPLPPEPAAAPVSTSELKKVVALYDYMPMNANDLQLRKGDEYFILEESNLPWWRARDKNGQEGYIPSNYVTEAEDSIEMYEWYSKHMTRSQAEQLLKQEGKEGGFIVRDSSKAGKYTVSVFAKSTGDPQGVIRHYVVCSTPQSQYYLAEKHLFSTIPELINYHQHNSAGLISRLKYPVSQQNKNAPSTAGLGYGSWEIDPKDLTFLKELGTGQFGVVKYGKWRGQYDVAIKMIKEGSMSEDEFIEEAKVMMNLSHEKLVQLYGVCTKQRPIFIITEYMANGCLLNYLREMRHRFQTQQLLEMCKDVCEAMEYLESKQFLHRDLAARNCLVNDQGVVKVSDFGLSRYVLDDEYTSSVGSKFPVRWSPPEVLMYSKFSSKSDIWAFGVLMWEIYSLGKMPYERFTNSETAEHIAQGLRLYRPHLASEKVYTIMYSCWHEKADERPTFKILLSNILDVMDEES
Assay: BTK cell degradation in Ramos cells (total BTK ELISA)
Format: cell-based
Conditions: 16 h incubation, FastScan total BTK ELISA
measurement-name: DC50 (nM)

Below, each entry is followed by its recorded DC50 result.
molecule: NC(=O)c1c(-c2ccc(Oc3ccccc3)cc2)nn2c1NCC[C@H]2C1CCN(C(=O)COCCOCCNC(=O)CCN2CCN(c3ccc4c(c3)C(=O)N(C3CCC(=O)NC3=O)C4=O)CC2)CC1 (some centres unmarked)
measurement-name: DC50
unit: nM
recorded-value: 1480

molecule: CN(CCC(=O)N1CCC([C@@H]2CCNc3c(C(N)=O)c(-c4ccc(Oc5ccccc5)cc4)nn32)CC1)CC1CCN(c2ccc3c(c2)C(=O)N(C2CCC(=O)NC2=O)C3=O)CC1 (some centres unmarked)
measurement-name: DC50
unit: nM
recorded-value: 35

1: NC(=O)c1c(-c2ccc(Oc3ccccc3)cc2)nn2c1NCC[C@H]2C1CCN(C(=O)CCCN2CCN(C(=O)CNc3ccc4c(c3)C(=O)N(C3CCC(=O)NC3=O)C4=O)CC2)CC1 (some centres unmarked)
2: NC(=O)c1c(-c2ccc(Oc3ccccc3)cc2)nn2c1NCC[C@H]2C1CCN(C(=O)CCCc2cn(CCCCNC(=O)COc3cccc4c3C(=O)N(C3CCC(=O)NC3=O)C4=O)nn2)CC1 (some centres unmarked)
Challenge: Kindly identify which of 1 and 2 has the larger recorded DC50 value. Please reply using the label of the selected record.
Response given: 2
